Cited source for all entries: PubChem BioAssay (NCI)

# System: HL-60(TB) leukemia
# assay_info: NCI tumour cell line growth inhibition, 48 h
reported_property: GI50

# annotated cases, reported GI50 shown
Cc1nc(-c2ccccc2)n2nc(NCCCN3CCOCC3)ncc12 = > 25 µM
COc1ccc2cc(/C=C/C(=O)c3ccc(Cl)cc3Cl)ccc2c1 = 17.5 µM
CC(=O)c1c(C)nc(SSc2nc(C)c(C(C)=O)c(-c3ccc(Cl)cc3)c2C#N)c(C#N)c1-c1ccc(Cl)cc1 = > 150 µg/mL
CS(=O)(=O)CCNCc1cc(-c2cc3c(Nc4ccc(OCc5cccc(F)c5)c(Cl)c4)ncnc3s2)cs1 = 4.18 µM

Exercise: Give its GI50 value. Item: CCNc1cc(-c2cccc(OC(F)(F)F)c2)nc2ccc(N3CCCC3)cc12
Key: 1.97 µM

Exercise: Give its GI50 value. Item: [C](#Cc1ccccc1)[Hg][C]#Cc1ccccc1
Key: 27.7 µM

Exercise: Give its GI50 value. Item: Cc1nn[n-]n1.N.N.N.N.N.[Cl-].[Co+3]
Key: > 100 µM

Exercise: Give its GI50 value. Item: Cn1c(C(=O)c2ccncc2)cc2ccccc21
Key: 76.5 µM

Exercise: Give its GI50 value. Item: CCCCCCCCCCCCCCCCCC1=NC(C)(C)CN1CC(C)O (stereo not given)
Key: 4.82 µM

Exercise: Give its GI50 value. Item: COc1cccc(/C(C#N)=C/c2nc3c(N4CCOCC4)nc(Cl)nc3n2C)c1
Key: 1.46 µM
